test system: K562 (human leukemia cells); experiment: MTT cancer cell growth inhibition; type: cell-based; details: Homo sapiens, K562, 72 h, MTT, 72 hours incubation, K562 cells; read-out: GI50 K562
Define the label as y when GI50 is strictly less than 40 nM and as n in all remaining cases.

Reference set (5 entries):
In plain terms, does `C/C=C1\NC(=O)c2cc(F)cc(n2)CNC(=O)C[C@@H](/C=C/CCS)OC(=O)[C@H](C)NC1=O` come in under 40 nM for GI50?
n

Dear reviewer, please state whether `C/C=C1\NC(=O)c2nc(ccc2SC)CNC(=O)C[C@@H](/C=C/CCSC(=O)CCC)OC(=O)[C@H](C(C)C)NC1=O` has GI50 strictly beneath 40 nM.
n

hey, is GI50 for `C/C=C1\NC(=O)c2cc(SC)cc(n2)CNC(=O)C[C@@H](/C=C/CCSC(=O)CCCCCCC)OC(=O)[C@H](CC)NC1=O` lower than 40 nM or not?
y

Below 40 nM on GI50? Entry `C/C=C1\NC(=O)c2ccc(F)c(n2)CNC(=O)C[C@@H](/C=C/CCS)OC(=O)[C@H](Cc2cccc3ccccc23)NC1=O`
n

Determine if `C/C=C1\NC(=O)c2cc(SC)cc(n2)CNC(=O)C[C@@H](/C=C/CCS)OC(=O)[C@H](C(C)C)NC1=O` shows GI50 strictly lower than 40 nM.
y

---
For `C/C=C1\NC(=O)c2cc(F)cc(n2)CNC(=O)C[C@@H](/C=C/CCSC(=O)CC)OC(=O)[C@H](C(C)C)NC1=O` , is the recorded GI50 below the cut-off of 40 nM?
y

For this compound, is GI50 lower than 40 nM? `C/C=C1\NC(=O)c2cccc(n2)CNC(=O)C[C@@H](/C=C/CCSC(=O)CCCCC)OC(=O)[C@H](C(C)C)NC1=O`
y

Hello, is GI50 of the following compound strictly smaller than 40 nM? `C/C=C1\NC(=O)c2nc(ccc2SCC)CNC(=O)C[C@@H](/C=C/CCSC(=O)CCCCCCC)OC(=O)[C@H](C(C)C)NC1=O`
y

I'd appreciate it if you could check whether `CC(C)=C1NC(=O)c2cc(F)cc(n2)CNC(=O)C[C@@H](/C=C/CCS)OC(=O)[C@H](C(C)C)NC1=O` has GI50 smaller than 40 nM.
y

Bench note: check whether `C=C1NC(=O)c2cccc(n2)CNC(=O)C[C@@H](/C=C/CCS)OC(=O)[C@H](C)NC1=O` shows GI50 below 40 nM
n

Just wondering, is GI50 of `CC(C)=C1NC(=O)c2cccc(n2)CNC(=O)C[C@@H](/C=C/CCS)OC(=O)[C@H](C(C)C)NC1=O` below 40 nM?
y

Does `C/C=C1\NC(=O)c2cccc(n2)CNC(=O)C[C@@H](/C=C/CCSC(C)=O)OC(=O)[C@H](CC)NC1=O` have GI50 strictly under 40 nM?
n

Strictly below 40 nM: is that where GI50 of `CCCCCCCC(=O)SCC/C=C/[C@@H]1CC(=O)NCc2cccc(n2)C(=O)NCC(=O)N[C@@H](C(C)C)C(=O)O1` sits?
y

Please indicate whether the reported GI50 of `C/C=C1\NC(=O)c2ncc(F)c(n2)CNC(=O)C[C@@H](/C=C/CCSC(C)=O)OC(=O)[C@H](C)NC1=O` is strictly below 40 nM.
n

Answer whether the compound `C/C=C1\NC(=O)c2nc(ccc2SC)CNC(=O)C[C@@H](/C=C/CCSC(=O)CC)OC(=O)[C@H](C(C)C)NC1=O` has GI50 strictly less than 40 nM
n

# check: GI50 < 40 nM for `C/C=C1\NC(=O)c2ccc(SC)c(n2)CNC(=O)C[C@@H](/C=C/CCSC(=O)CC)OC(=O)[C@H](C(C)C)NC1=O`
n

Consider the compound `C/C=C1\NC(=O)c2cccc(n2)CNC(=O)C[C@@H](/C=C/CCSC(=O)CCCCCCC)OC(=O)[C@H](c2ccc(O)cc2)NC1=O` . Is its GI50 strictly less than 40 nM?
n

Please indicate whether the reported GI50 of `C/C=C1\NC(=O)c2nc(ccc2F)CNC(=O)C[C@@H](/C=C/CCS)OC(=O)[C@H](CC)NC1=O` is strictly below 40 nM.
y

is_below(GI50, 40 nM) for `C/C=C1\NC(=O)c2ncc(SC)c(n2)CNC(=O)C[C@@H](/C=C/CCSC(C)=O)OC(=O)[C@H](C)NC1=O` ?
n

Strictly below 40 nM in GI50? `C/C=C1\NC(=O)c2ccc(SC)c(n2)CNC(=O)C[C@@H](/C=C/CCSC=O)OC(=O)[C@H](C(C)C)NC1=O`
y

Given `C/C=C1\NC(=O)c2cc(SC)cc(n2)CNC(=O)C[C@@H](/C=C/CCSC(=O)CC)OC(=O)[C@H](C(C)C)NC1=O` , is recorded GI50 strictly lower than 40 nM?
n

###

molecular target: HDAC11 (Homo sapiens, UniProt Q96DB2); test: HDAC biochemical activity measurement (fluorescent substrate deacetylation);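 also: HDAC11 enzyme acting on an acetyl-lysine fluorogenic substrate, then a developer frees the fluorophore, read at excitation 360 nm and emission 460 nm, IC50 over a compound dilution series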; conditions: read-out: IC50 HDAC11; HDAC11; 37° C. 30 minutes
Sequence (Q96DB2 whole entry, species assumed): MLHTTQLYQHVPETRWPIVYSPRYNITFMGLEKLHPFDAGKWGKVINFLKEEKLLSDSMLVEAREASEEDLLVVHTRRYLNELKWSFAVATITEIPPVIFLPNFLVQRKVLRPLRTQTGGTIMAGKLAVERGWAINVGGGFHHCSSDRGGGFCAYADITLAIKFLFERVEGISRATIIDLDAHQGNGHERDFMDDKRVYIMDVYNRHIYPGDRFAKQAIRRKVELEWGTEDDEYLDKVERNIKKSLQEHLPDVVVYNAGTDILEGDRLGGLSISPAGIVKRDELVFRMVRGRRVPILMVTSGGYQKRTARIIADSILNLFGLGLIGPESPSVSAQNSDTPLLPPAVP
observed_property: pIC50
One number for each entry, as −log10 of the molar value.

Recorded pIC50, per entry:
# pIC50 (molecule: C/C=C1\NC(=O)c2cccc(n2)CNC(=O)C[C@@H](/C=C/CCSC(C)=O)OC(=O)[C@H](Cc2cccc3ccccc23)NC1=O [Compound 17] ) is 7.01

Form field pIC50, entry CCCCCCCC(=O)SCC/C=C/[C@@H]1CC(=O)NCc2cccc(n2)C(=O)NC(CC)C(=O)N[C@@H](C(C)C)C(=O)O1 (some centres unmarked) [Compound 245] : 6.90

Each molecule below has a reported value. Please supply its pIC50.
1. C/C=C1\NC(=O)c2ccc(F)c(n2)CNC(=O)C[C@@H](/C=C/CCSC=O)OC(=O)[C@H](C(C)C)NC1=O [Example 53]
2. C/C=C1\NC(=O)c2cccc(n2)CNC(=O)C[C@@H](/C=C/CCSC(C)=O)OC(=O)[C@H](Cc2ccccc2)NC1=O [Compound 13]
3. C/C=C1\NC(=O)c2cccc(n2)CNC(=O)C[C@@H](/C=C/CCSC(C)=O)OC(=O)[C@H](CCCCNC(=O)OCC2c3ccccc3-c3ccccc32)NC1=O [Compound 16]

1: 6.98; 2: 7.03; 3: 7.02

###

Test system: H1975 (non-small cell lung adenocarcinoma)
Test: MTT cancer cell growth inhibition
Format: cell-based
Settings: Homo sapiens, NCI-H1975, 72 h, MTT, 72 hours incubation, H1975 cells; read-out: GI50 H1975
Text: MTT assay principle is yellow MTT can penetrate membrane into the cell, succinic dehydrogenase of the mitochondria in living cells can make exogenous MTT reduction of insoluble in water of blue-violet acicular formazan for crystallization and deposition in the cell, crystallization can be dissolved dimethyl sulfoxide (DMSO) solution, detected its absorbance at 490 nm/570 nm wavelength by enzyme-linked immunosorbent assay, which can reflect the number of cells. […] e) 570 nm readings. […]
Assignment: determine reported GI50 for the given compounds.
Answers are plain numbers, in nM.

Illustrative cases are given below, each with its answer.
Measured GI50, C/C=C1\NC(=O)c2nc(ccc2SC)CNC(=O)C[C@@H](/C=C/CCSC(C)=O)OC(=O)[C@H](C)NC1=O [Compound 183] : 41

Per the record, C/C=C1\NC(=O)c2nc(ccc2F)CNC(=O)C[C@@H](/C=C/CCSC(=O)CCCCCCC)OC(=O)[C@H](C(C)C)NC1=O [Compound 30] has GI50 of 39

GI50 recorded for this compound, C=C1NC(=O)c2cc(SC)cc(n2)CNC(=O)C[C@@H](/C=C/CCSC(C)=O)OC(=O)[C@H](C(C)C)NC1=O [Compound 205] , is 64

Short answer for C/C=C1\NC(=O)c2cc(SC)cc(n2)CNC(=O)C[C@@H](/C=C/CCSC(=O)CCCCCCC)OC(=O)[C@H](C)NC1=O [Compound 181] : GI50 was 35

Items follow; give GI50 for each.
1. C/C=C1\NC(=O)c2nc(ccc2F)CNC(=O)C[C@@H](/C=C/CCSC(C)=O)OC(=O)[C@H](CCCCN)NC1=O [Compound 72]
2. C/C=C1\NC(=O)c2ccc(F)c(n2)CNC(=O)C[C@@H](/C=C/CCSC(C)=O)OC(=O)[C@@H](C)NC1=O [Compound 102]

34
35

###

target: HDAC1 (Homo sapiens, UniProt Q13547); test: HDAC biochemical activity measurement (fluorescent substrate deacetylation); conditions: Table 3; read-out: IC50 HDAC1, D (non-substituent);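 also: fluorogenic acetyl-lysine substrate (20 µM) deacetylated by HDAC1, then developer releases fluorophore read at 360 nm excitation and 460 nm emission, inhibitor incubated 30 min at 37 °C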
Sequence (Q13547 whole entry, species assumed): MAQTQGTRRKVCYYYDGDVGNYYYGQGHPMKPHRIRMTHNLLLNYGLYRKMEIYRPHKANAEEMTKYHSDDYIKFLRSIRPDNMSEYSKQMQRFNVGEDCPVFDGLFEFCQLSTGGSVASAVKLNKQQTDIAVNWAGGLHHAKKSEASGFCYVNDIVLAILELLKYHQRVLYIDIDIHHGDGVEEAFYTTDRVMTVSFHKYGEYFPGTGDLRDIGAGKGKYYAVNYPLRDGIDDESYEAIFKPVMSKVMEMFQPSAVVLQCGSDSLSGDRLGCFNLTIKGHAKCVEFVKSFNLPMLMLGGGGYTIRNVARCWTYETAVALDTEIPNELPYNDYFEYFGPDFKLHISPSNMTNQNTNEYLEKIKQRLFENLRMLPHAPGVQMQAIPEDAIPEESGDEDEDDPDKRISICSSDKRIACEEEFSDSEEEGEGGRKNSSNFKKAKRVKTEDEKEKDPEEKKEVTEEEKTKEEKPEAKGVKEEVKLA
For each of the compounds below, state its pIC50.
One number for each entry, as −log10 of the molar value.

Solved entries:
HDAC1 (Homo sapiens, UniProt Q13547) pIC50 of `C/C=C1\NC(=O)c2cccc(n2)CNC(=O)C[C@@H](/C=C/CCSC(C)=O)OC(=O)[C@H](CC)NC1=O` is 7.04

For the compound `C/C=C1\NC(=O)c2cccc(n2)CNC(=O)C[C@@H](/C=C/CCSC(C)=O)OC(=O)[C@H](Cc2ccccc2)NC1=O` , the measured pIC50 on HDAC1 (Homo sapiens, UniProt Q13547) was 6.73

Response field pIC50 (HDAC1 (Homo sapiens, UniProt Q13547)) for item `C=C1NC(=O)c2cccc(n2)CNC(=O)C[C@@H](/C=C/CCSC(C)=O)OC(=O)[C@H](C(C)C)NC1=O` : 6.75

Known value: HDAC1 (Homo sapiens, UniProt Q13547) pIC50 of the compound `C/C=C1\NC(=O)c2cccc(n2)CNC(=O)C[C@@H](/C=C/CCSC(=O)CCCC)OC(=O)[C@H](C(C)C)NC1=O` equals 6.74

// next entry
pIC50 value, target or system HDAC1 (Homo sapiens, UniProt Q13547), for `C/C=C1\NC(=O)c2cccc(n2)CNC(=O)C[C@@H](/C=C/CCSC(C)=O)OC(=O)[C@H](Cc2ccc(O)cc2)NC1=O` : 6.73
